Value source: the NIST ThermoML archive (doi:10.1016/j.jct.2004.12.011)

assay: Molar enthalpy of transition or fusion; conditions: Crystal 2; DSC
# key: entry, value: Molar enthalpy of transition or fusion
Give the value, in units of kcal/mol, as a plain number.

As a guide, the following entries are already answered.
- smiles notation: "O=C(O)CCCCCCCC(=O)O"
  Molar enthalpy of transition or fusion (kcal/mol): 0.167
- smiles notation: "O=C(O)CCCC(=O)O"
  Molar enthalpy of transition or fusion (kcal/mol): 0.55
- smiles notation: "O=C(O)CCCCCCCCCC(=O)O"
  Molar enthalpy of transition or fusion (kcal/mol): 0.382
- smiles notation: "O=C(O)CCCCCCC(=O)O"
  Molar enthalpy of transition or fusion (kcal/mol): 2.17

Entry O=C(O)CCCCCCCCC(=O)O : reported Molar enthalpy of transition or fusion = ?
0.0956

Entry O=C(O)CCCCCCCCCCC(=O)O : reported Molar enthalpy of transition or fusion = ?
-0.0239

###

conditions: Crystal 2; DTA
# key: entry, value: Triple point temperature
Give the value, in units of K, as a plain number.

- molecule: "O=C(O)CCCC(=O)O [1,5-pentanedioic acid]"
  Triple point temperature (K): 340.5

Entry O=C(O)CCCCCC(=O)O [1,7-heptanedioic acid] : reported Triple point temperature = ?
366.3

Entry O=C(O)CCCCCCCCCCC(=O)O [1,12-dodecanedioic acid] : reported Triple point temperature = ?
387

Entry O=C(O)CCCCCCCCCC(=O)O [1,11-undecanedioic acid] : reported Triple point temperature = ?
355.3

Entry O=C(O)CCCCCCCCC(=O)O [1,10-decanedioic acid] : reported Triple point temperature = ?
370.3

Entry O=C(O)CCCCCCC(=O)O [1,8-octanedioic acid] : reported Triple point temperature = ?
403.6

Entry O=C(O)CCCCCCCC(=O)O [1,9-nonanedioic acid] : reported Triple point temperature = ?
339.8

###

# key: entry, value: molar enthalpy
assay: molar enthalpy of vaporization or sublimation; conditions: 298.15 K; Crystal 1; DSC
Give the figure together with its unit, number first.

As a guide, the following entries are already answered.
- smiles notation: "O=C(O)CCCCCC(=O)O"
  molar enthalpy: "133 kJ/mol"
- smiles notation: "O=C(O)CCCC(=O)O"
  molar enthalpy: "119 kJ/mol"
- smiles notation: "O=C(O)CCCCCCCCCCCCC(=O)O"
  molar enthalpy: "175 kJ/mol"
- smiles notation: "O=C(O)CCCCCCCC(=O)O"
  molar enthalpy: "144 kJ/mol"
- smiles notation: "O=C(O)CCCCCCC(=O)O"
  molar enthalpy: "151 kJ/mol"

Would you kindly look at the next entry?
Entry O=C(O)CCCCCCCCCCC(=O)O : reported molar enthalpy = ?
171 kJ/mol
